What pKi was measured for each of the following?
tested.system: Glucocorticoid receptor (Homo sapiens, UniProt P04150)
Sequence (P04150 whole entry): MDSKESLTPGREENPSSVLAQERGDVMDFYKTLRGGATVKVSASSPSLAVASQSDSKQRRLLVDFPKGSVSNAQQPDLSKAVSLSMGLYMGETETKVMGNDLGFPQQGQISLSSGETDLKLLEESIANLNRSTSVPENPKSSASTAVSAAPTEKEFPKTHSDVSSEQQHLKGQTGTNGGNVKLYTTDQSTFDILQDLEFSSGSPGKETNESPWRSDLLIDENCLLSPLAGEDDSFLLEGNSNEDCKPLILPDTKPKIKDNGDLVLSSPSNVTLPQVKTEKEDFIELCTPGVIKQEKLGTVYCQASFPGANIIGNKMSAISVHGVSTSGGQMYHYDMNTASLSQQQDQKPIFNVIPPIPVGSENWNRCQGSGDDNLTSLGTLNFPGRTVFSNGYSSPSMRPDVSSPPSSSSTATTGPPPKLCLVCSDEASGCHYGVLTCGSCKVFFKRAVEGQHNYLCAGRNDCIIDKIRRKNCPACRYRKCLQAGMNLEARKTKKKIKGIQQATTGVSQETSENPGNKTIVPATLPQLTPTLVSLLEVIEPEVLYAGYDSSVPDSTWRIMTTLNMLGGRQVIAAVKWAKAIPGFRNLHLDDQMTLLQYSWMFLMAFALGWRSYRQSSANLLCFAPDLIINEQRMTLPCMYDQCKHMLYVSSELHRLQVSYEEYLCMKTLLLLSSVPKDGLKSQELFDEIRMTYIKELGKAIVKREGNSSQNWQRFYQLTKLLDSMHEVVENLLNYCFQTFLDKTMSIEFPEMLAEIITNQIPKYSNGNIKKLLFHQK
assay.name: Antagonist activity at human GR
Type: functional
Formally, pKi is defined as -log10 of the concentration c, with c in mol/L.

Note down pKi recorded for "Cn1c(=O)[nH]c(N2CCC(c3ccccc3)CC2)c(Cc2ccccc2)c1=O" 6.72

Using known records, supply pKi for "O=c1[nH]c(N2CCC(c3ccccc3)CC2)c(Cc2cccc(Br)c2)c(=O)[nH]1" 7.19

For the compound "O=c1[nH]c(N2CCC(c3ccccc3)CC2)c(Cc2ccccc2)c(=O)[nH]1" , give its measured pKi value. 7.03

// fetch pKi given entry "Cn1c(=O)[nH]c(N2CCC(Cc3ccccc3)CC2)c(Cc2ccccc2)c1=O" 7.00

Annotate the compound "O=c1[nH]c(N2CCC(c3ccccc3)CC2)c(Cc2cccc(Cl)c2)c(=O)[nH]1" with its measured pKi. 7.02

Input "O=c1[nH]c(N2CCC(c3ccccc3)CC2)c(Cc2ccc(Cl)cc2)c(=O)[nH]1" , output reported pKi. 6.59

Specify measured pKi for "COc1cccc(C2CCN(c3[nH]c(=O)[nH]c(=O)c3Cc3ccccc3)CC2)c1" . 6.80

Given "Cn1c(=O)[nH]c(N2CCC(Cc3ccccc3)CC2)c(Cc2ccccc2Br)c1=O" , respond with its pKi. 6.52

Return value of pKi for input "O=c1[nH]c(N2CCC(c3ccccc3)CC2)c(Cc2ccccc2Cl)c(=O)[nH]1" , no commentary. 7.30

Hello, please tell me recorded pKi for this one: "O=c1[nH]c(N2CCC(Cc3ccccc3)CC2)c(Cc2ccccc2)c(=O)[nH]1" 6.82
